Test system: HIV-1 30N82I88D
measurement protocol: microbe, parasite or virus in culture
Type: cell-based
condition info: MT-4, 30N82I88D; read-out: Cell-based assay (MT-4) EC50/nM 30N82I88D
Entries and their EC50 values follow.
Report the value in nM with no unit label.

Enquiry: What value of EC50 has been recorded for this entry: Nc1n[nH]c2ccc(CN3C(=O)N(Cc4ccc(O)cc4)C(Cc4ccccc4)C(O)C(O)C3Cc3ccccc3)cc12 (stereo not shown)
Return: 79

Enquiry: Would you mind telling me what EC50 value was observed for CCOC(=O)C(C)NP(=O)(COc1cccc(CN2C(=O)N(Cc3ccc4[nH]nc(N)c4c3)C(Cc3ccccc3)C(O)C(O)C2Cc2ccccc2)c1)NC(C)C(=O)OCC (stereo not shown) ?
Return: 1850

Enquiry: Entry CCCCOC(=O)C(C)NP(=O)(COc1cccc(CN2C(=O)N(Cc3ccc4[nH]nc(N)c4c3)C(Cc3ccccc3)C(O)C(O)C2Cc2ccccc2)c1)NC(C)C(=O)OCCCC (stereo not shown) has what EC50?
Return: 2360

Enquiry: Endpoint output: EC50 of CCCCN1C(=O)N(Cc2ccc3[nH]nc(N)c3c2)C(Cc2ccccc2)C(O)C(O)C1Cc1ccccc1 (stereo not shown) . Value?
Return: 69

Enquiry: # query: EC50 of entry CCOP(=O)(COc1ccc(CC2C(O)C(O)C(Cc3ccc(OC)cc3)N(Cc3ccc(O)cc3)C(=O)N2Cc2ccc(O)cc2)cc1)OCC (stereo not shown)
Return: 23

***
Enquiry: Param item = Nc1n[nH]c2ccc(CN3C(=O)N(CCCCO)C(Cc4ccccc4)C(O)C(O)C3Cc3ccccc3)cc12 (stereo not shown) ; retrieve measured EC50.
Return: 486

Enquiry: Request the reported EC50 associated with CCOP(=O)(COc1ccc(CC2C(O)C(O)C(Cc3ccc(OC)cc3)N(Cc3cccnc3)C(=O)N2Cc2cccnc2)cc1)OCC (stereo not shown)
Return: 106

* * *

Below, each of the compounds is paired with its reported Ki value.
study target: recombinant HIV-1 protease (Human immunodeficiency virus type 1 group M subtype B, UniProt P04585)
Construct: Enzyme: recombinant HIV-1 protease expressed in E.Coli; purchased Bachem California, Inc. H-9040; host or cells: E. coli
measurement protocol: biochemical
condition info: read-out: Ki

Please review the following examples before continuing.
Enquiry: # input compound: CCOC(=O)C(C)OP(=O)(CCN1CC=C(CC(NC(=O)OC2COC3OCCC23)C(O)CN(CC(C)C)S(=O)(=O)c2ccc(OC)cc2)CC1)Oc1ccccc1 (stereo not drawn) ; wanted: its Ki
Return: > 1 nM

Enquiry: May I ask what Ki has been recorded for CC(C)CN(C[C@@H](O)[C@H](Cc1ccccc1)NC(=O)O[C@H]1CO[C@H]2OCC[C@H]21)S(=O)(=O)c1ccc(OCP(=O)(Oc2ccccc2)O[C@@H](C)C(=O)OC(C)C)cc1 (stereo partly drawn) [OPh, Lac-iPr] ?
Return: 0.1 to 1 nM

***
Enquiry: Quick one: Ki of CCOC(=O)C(C)NP(=O)(COc1cccc(CN2C(=O)N(Cc3ccc4[nH]nc(N)c4c3)C(Cc3ccccc3)C(O)C(O)C2Cc2ccccc2)c1)NC(C)C(=O)OCC (stereo not drawn) [m-bis-Ala-Et] ?
Return: 1.99 nM

* * *

Listed below: half-life values for each entry.
measurement protocol: in vivo
condition info: beagle, dog, po

Enquiry: Quick one: half-life of `Cc1c(O)cccc1C(=O)N[C@@H](CSc1ccccc1)[C@H](O)CN1C[C@H]2CCCC[C@H]2C[C@H]1C(=O)NC(C)(C)C` ?
Return: 3 h

Here is another compound to look at.
Enquiry: Name the reported half-life value associated with the compound CC(C)CN(C[C@@H](O)[C@H](Cc1ccccc1)NC(=O)O[C@H]1CCOC1)S(=O)(=O)c1ccc(N)cc1 [Amprenavir, reference compound]
Return: 1.7 h

* * *

study target: WT HIV protease (Human immunodeficiency virus type 1 group M subtype B)
Construct: synthetic hexapeptide substrate cleavage by HIV-1 protease
measurement protocol: biochemical
Set-up: species or system HIV-1
Here the recorded pIC50 is given for each entry.
Bear in mind: pIC50 is minus log10 of a mol/L concentration; give just that figure.

Below, each entry is followed by its recorded pIC50 result.
Enquiry: I'd like to know its pIC50. The compound in question is Nc1n[nH]c2ccc(CN3C(=O)N(Cc4cccc(OCP(=O)(O)Oc5ccccc5)c4)C(Cc4ccccc4)C(O)C(O)C3Cc3ccccc3)cc12 (stereo not shown) [m-OCH2PO3HPh]
Return: 7.77

Enquiry: Please look up its pIC50: Nc1n[nH]c2ccc(CN3C(=O)N(Cc4ccc(OCP(=O)(O)O)cc4)C(Cc4ccccc4)C(O)C(O)C3Cc3ccccc3)cc12 (stereo not shown) [p-OCH2PO3H2]
Return: 6.26

Enquiry: Using the record for Nc1n[nH]c2ccc(CN3C(=O)N(Cc4cccc(OCP(=O)(Oc5ccccc5)Oc5ccccc5)c4)C(Cc4ccccc4)C(O)C(O)C3Cc3ccccc3)cc12 (stereo not shown) [m-OCH2PO3Ph2] , report its pIC50.
Return: 8.00

Continuing:
Enquiry: pIC50 lookup needed for Nc1n[nH]c2ccc(CN3C(=O)N(Cc4cccc(OCP(=O)(O)O)c4)C(Cc4ccccc4)C(O)C(O)C3Cc3ccccc3)cc12 (stereo not shown) [m-OCH2PO3H2] , thanks.
Return: 8.08

* * *

System: wild-type HIV-1 strain IIIB
measurement protocol: microbe, parasite or virus in culture
Assay type: cell-based
Design: scale not given here
measurement label: EC50 (nM)

Enquiry: # input molecule: CCOC(=O)C(C)OP(=O)(CCN1CC=C(CC(NC(=O)OC2COC3OCCC23)C(O)CN(CC(C)C)S(=O)(=O)c2ccc(OC)cc2)CC1)Oc1ccccc1 (stereo not drawn) ; wanted: its EC50 (nM)
Return: + + +

Enquiry: Recorded EC50 (nM) for CCOP(=O)(COc1ccc(CC(NC(=O)OC2CCOC2)C(O)CN(CC(C)C)S(=O)(=O)c2ccc(OC)cc2)cc1)OCC (stereo not drawn) [OMe, OEt] , please?
Return: + + +

Enquiry: Need EC50 (nM) of CC(C)CN(CC(O)C(Cc1ccc(O)cc1)NC(=O)OC1COC2OCCC12)S(=O)(=O)c1ccc(N)cc1 (stereo not drawn) [OH, p-NH2] , thanks.
Return: + +

Enquiry: Dear colleague, I am looking for the recorded EC50 (nM) of the following molecule: COc1ccc(S(=O)(=O)N(CC(C)C)CC(O)C(CC2=CCN(CP(=O)(O)OC(C)C(=O)O)CC2)NC(=O)OC2COC3OCCC23)cc1 (stereo not drawn)
Return: + + +

Enquiry: Consider the molecule COc1ccc(S(=O)(=O)N(CC(C)C)C[C@@H](O)[C@H](Cc2ccc(OCP(=O)(Oc3ccccc3)Oc3ccccc3)cc2)NC(=O)OC2CCOC2)cc1 (stereo partly drawn) [OMe, phenol] and give its measured EC50 (nM).
Return: + + +

More entries:
Enquiry: Tell me the measured EC50 (nM) of CC(C)CN(C[C@@H](O)[C@H](Cc1ccc(OCP(=O)(Oc2ccccc2)Oc2ccccc2)cc1)NC(=O)OC1CCOC1)S(=O)(=O)c1ccc(N)cc1 (stereo partly drawn) [NH2, phenol] , please.
Return: + +

* * *

Test system: recombinant HIV-1 10I 84V 71V 73S 90M
measurement protocol: microbe, parasite or virus in culture
Assay type: cell-based
condition info: read-out: Cell-based assay (MT-4) EC50/nM 84V 90M; MT-4 cells, strain printed as 84V 90M
measurement label: EC50
Quick note: number first, unit second.

Enquiry: Entry CCOP(=O)(CCNC(=O)Oc1ccc(CC2C(O)C(O)C(Cc3ccc(OC)cc3)N(Cc3cccc(N)c3)C(=O)N2Cc2cccc(N)c2)cc1)OCC (stereo not shown) [OCH3/Ph-mNH2/OCONH(CH2)2PO3Et2] has what EC50?
Return: 2260 nM

* * *

study target: HIV-1 protease 84V90M (Human immunodeficiency virus type 1 group M subtype B, UniProt P04585, I572V/L578M)
Construct: synthetic hexapeptide substrate cleavage by HIV-1 protease
measurement protocol: Enzymatic assay, IC50 against 84V90M mutant protease
IC50 values for the compounds below.
Value expressed in nM; do not type the unit.

Sample answers from the record:
Enquiry: Given CCOP(=O)(COc1ccc(CC2C(O)C(O)C(Cc3ccc(OC)cc3)N(Cc3cccc(N)c3)C(=O)N2Cc2cccc(N)c2)cc1)OCC (stereo not shown) [OCH3/Ph-mNH2/OCH2PO3Et2] , state its recorded IC50.
Return: 56

Enquiry: What does the data say about its IC50? Entry: O=C1N(Cc2ccccc2)C(Cc2ccccc2)C(O)C(O)C(Cc2ccc(OCP(=O)(OCc3ccccc3)OCc3ccccc3)cc2)N1Cc1ccccc1 (stereo not shown)
Return: 158

Enquiry: Item under review: CCOP(=O)(CCNC(=O)Oc1ccc(CC2C(O)C(O)C(Cc3ccc(OC)cc3)N(Cc3ccc(O)cc3)C(=O)N2Cc2ccc(O)cc2)cc1)OCC (stereo not shown) [OCH3/Ph-pOH/OCONH(CH2)2PO3Et2] . Reported IC50?
Return: 49

New cases:
Enquiry: Quick check: IC50 of O=C1N(Cc2ccccc2)C(Cc2ccccc2)C(O)C(O)C(Cc2ccc(OCP(=O)(O)O)cc2)N1Cc1ccccc1 (stereo not shown) ?
Return: 210
